- tested-target: Cytochrome P450 2C9 (Homo sapiens) (UniProt P11712)
- Sequence (P11712 whole entry, looked up): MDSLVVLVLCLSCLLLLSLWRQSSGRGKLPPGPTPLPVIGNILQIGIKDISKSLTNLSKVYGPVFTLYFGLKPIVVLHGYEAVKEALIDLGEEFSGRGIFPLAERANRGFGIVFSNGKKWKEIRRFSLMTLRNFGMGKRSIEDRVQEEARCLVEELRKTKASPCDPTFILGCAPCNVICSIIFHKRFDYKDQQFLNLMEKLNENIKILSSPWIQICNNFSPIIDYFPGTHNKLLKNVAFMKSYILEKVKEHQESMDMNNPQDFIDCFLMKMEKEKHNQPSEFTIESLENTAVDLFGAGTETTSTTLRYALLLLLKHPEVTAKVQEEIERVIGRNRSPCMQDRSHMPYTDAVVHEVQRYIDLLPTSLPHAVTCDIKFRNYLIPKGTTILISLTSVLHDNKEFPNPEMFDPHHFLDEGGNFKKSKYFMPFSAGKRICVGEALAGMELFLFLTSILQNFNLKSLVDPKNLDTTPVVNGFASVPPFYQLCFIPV
- procedure-summary: Cytochrome panel assay with activity outcomes
- particulars: recombinant CYP, pro-luciferin dealkylation, luminescence, p450-cyp2c9; series mostly up to 57.1 µM
The campaign covered roughly 16,000 compounds. About 4,000 (25%) were called active. Not shown: some 26% with an inconclusive outcome. Not all results are given here.
recorded-metric: AC50

- compound: "CC[N+](CC)(CC)CCOc1ccc(/C=C\\c2ccccc2)cc1"
  tested-target: "Cytochrome P450 2C9 (Homo sapiens) (UniProt P11712)"
  recorded-metric: "AC50"
  result: "inactive"
- compound: "COc1cccc(C(=O)NCCN2CCN(c3ccc(Cl)cc3)CC2)c1"
  tested-target: "Cytochrome P450 2C9 (Homo sapiens) (UniProt P11712)"
  recorded-metric: "AC50"
  result: "inactive"
- compound: "CC(C)(C)NC(=O)CN(Cc1cccs1)C(=O)CCC(=O)Nc1nccs1"
  tested-target: "Cytochrome P450 2C9 (Homo sapiens) (UniProt P11712)"
  recorded-metric: "AC50"
  result: "inactive"
- compound: "CCC(C)(C)NC(=O)c1ccc2c(c1)N(CC(=O)OC)C(=O)C(C)(C)O2"
  tested-target: "Cytochrome P450 2C9 (Homo sapiens) (UniProt P11712)"
  recorded-metric: "AC50"
  result: "28.2 µM (active)"
- compound: "Cn1cc([N+](=O)[O-])c(C(=O)Nc2cc(Oc3cccnc3)cc([N+](=O)[O-])c2)n1"
  tested-target: "Cytochrome P450 2C9 (Homo sapiens) (UniProt P11712)"
  recorded-metric: "AC50"
  result: "5.62 µM (active)"
- compound: "CN(c1ccc(C(=O)NC2CC3CCC2C3)cc1)S(C)(=O)=O (stereo not drawn)"
  tested-target: "Cytochrome P450 2C9 (Homo sapiens) (UniProt P11712)"
  recorded-metric: "AC50"
  result: "inactive"
- compound: "O=C(CCc1ccc(S(=O)(=O)NC2CCCCC2)cc1)N(Cc1ccccc1)Cc1ccccc1"
  tested-target: "Cytochrome P450 2C9 (Homo sapiens) (UniProt P11712)"
  recorded-metric: "AC50"
  result: "1 µM (active)"
- compound: "O=C1c2ccccc2C(=O)C1c1ccccc1"
  tested-target: "Cytochrome P450 2C9 (Homo sapiens) (UniProt P11712)"
  recorded-metric: "AC50"
  result: "inactive"
- compound: "O=C(NC12CC3CC(CC(C3)C1)C2)N1CCN(c2nc(-c3ccccc3)cs2)CC1"
  tested-target: "Cytochrome P450 2C9 (Homo sapiens) (UniProt P11712)"
  recorded-metric: "AC50"
  result: "12.6 µM (active)"
- compound: "CSc1nc(Sc2cccc(Cl)c2)c2ccccc2n1"
  tested-target: "Cytochrome P450 2C9 (Homo sapiens) (UniProt P11712)"
  recorded-metric: "AC50"
  result: "0.251 µM (active)"
- compound: "O=C(CCCCn1c(=S)[nH]c2ccsc2c1=O)NCc1ccco1"
  tested-target: "Cytochrome P450 2C9 (Homo sapiens) (UniProt P11712)"
  recorded-metric: "AC50"
  result: "2.24 µM (active)"
- compound: "CCN(CC)CCCN(Cc1cc2ccc(C)c(C)c2[nH]c1=O)C(=O)NC1CCCCC1"
  tested-target: "Cytochrome P450 2C9 (Homo sapiens) (UniProt P11712)"
  recorded-metric: "AC50"
  result: "inactive"
- compound: "COc1cc([C@H]2c3cc4c(cc3[C@@H](O)[C@@H]3COC(=O)[C@H]23)OCO4)cc(OC)c1OC"
  tested-target: "Cytochrome P450 2C9 (Homo sapiens) (UniProt P11712)"
  recorded-metric: "AC50"
  result: "6.31 µM (active)"
- compound: "CCSc1nnc2n(N)c(=O)c3ccccc3n12"
  tested-target: "Cytochrome P450 2C9 (Homo sapiens) (UniProt P11712)"
  recorded-metric: "AC50"
  result: "inactive"
- compound: "O=C(Nc1ccc2ccccc2c1)[C@H]1C[C@@H]1[C@H](NP(=O)(c1ccccc1)c1ccccc1)c1ccccc1"
  tested-target: "Cytochrome P450 2C9 (Homo sapiens) (UniProt P11712)"
  recorded-metric: "AC50"
  result: "3.16 µM (active)"
- compound: "O=C(NCc1cc(F)cc2c1OCCO2)[C@H]1C[C@@H]1[C@H](NP(=O)(c1ccccc1)c1ccccc1)c1ccccc1"
  tested-target: "Cytochrome P450 2C9 (Homo sapiens) (UniProt P11712)"
  recorded-metric: "AC50"
  result: "12.6 µM (active)"
- compound: "CC(CC(=O)Nc1ccc(Cl)c([N+](=O)[O-])c1)c1ccccc1 (stereo not drawn)"
  tested-target: "Cytochrome P450 2C9 (Homo sapiens) (UniProt P11712)"
  recorded-metric: "AC50"
  result: "14.1 µM (active)"
- compound: "Oc1ccccc1C1Nc2cccc3cccc(c23)N1"
  tested-target: "Cytochrome P450 2C9 (Homo sapiens) (UniProt P11712)"
  recorded-metric: "AC50"
  result: "8.91 µM (active)"
- compound: "NC(N)=Nc1ccc(Cl)cc1"
  tested-target: "Cytochrome P450 2C9 (Homo sapiens) (UniProt P11712)"
  recorded-metric: "AC50"
  result: "inactive"
- compound: "O=C(NCCc1c[nH]c2ccccc12)[C@@H]1C[C@H]1[C@@H](NP(=O)(c1ccccc1)c1ccccc1)c1ccccc1"
  tested-target: "Cytochrome P450 2C9 (Homo sapiens) (UniProt P11712)"
  recorded-metric: "AC50"
  result: "0.251 µM (active)"
- compound: "Cc1c(C(=O)Nc2nccs2)sc2nc(-c3cccs3)cc(C(F)(F)F)c12"
  tested-target: "Cytochrome P450 2C9 (Homo sapiens) (UniProt P11712)"
  recorded-metric: "AC50"
  result: "3.16 µM (active)"
- compound: "C=CCNC(=O)/C(=C\\C=C\\c1ccccc1)NC(=O)c1ccc(OCCCC)cc1"
  tested-target: "Cytochrome P450 2C9 (Homo sapiens) (UniProt P11712)"
  recorded-metric: "AC50"
  result: "12.6 µM (active)"
- compound: "COc1cc2c(c(O)c1OC)C(=O)C(OC)CCC2 (stereo not drawn)"
  tested-target: "Cytochrome P450 2C9 (Homo sapiens) (UniProt P11712)"
  recorded-metric: "AC50"
  result: "inactive"
- compound: "CC(C)CN(C)c1nc(N)c(C(=O)N=C(N)N)nc1Cl"
  tested-target: "Cytochrome P450 2C9 (Homo sapiens) (UniProt P11712)"
  recorded-metric: "AC50"
  result: "inactive"
- compound: "Oc1ccccc1-c1nnc(-c2ccc(C(F)(F)F)cc2)o1"
  tested-target: "Cytochrome P450 2C9 (Homo sapiens) (UniProt P11712)"
  recorded-metric: "AC50"
  result: "inactive"
- compound: "O=C(NCCc1c[nH]c2ccccc12)[C@H]1C[C@@H]1[C@H](NP(=O)(c1ccccc1)c1ccccc1)c1ccccc1"
  tested-target: "Cytochrome P450 2C9 (Homo sapiens) (UniProt P11712)"
  recorded-metric: "AC50"
  result: "2 µM (active)"
- compound: "Cc1ccc(NC(=S)NC2CCCC2)cc1"
  tested-target: "Cytochrome P450 2C9 (Homo sapiens) (UniProt P11712)"
  recorded-metric: "AC50"
  result: "inactive"
- compound: "Cc1cccc(CN2CCN(CC(=O)O)C2=O)c1"
  tested-target: "Cytochrome P450 2C9 (Homo sapiens) (UniProt P11712)"
  recorded-metric: "AC50"
  result: "inactive"
